- assayed system: Serine/threonine-protein kinase WNK2 (Homo sapiens) (UniProt Q9Y3S1)
- Sequence (Q9Y3S1 whole entry): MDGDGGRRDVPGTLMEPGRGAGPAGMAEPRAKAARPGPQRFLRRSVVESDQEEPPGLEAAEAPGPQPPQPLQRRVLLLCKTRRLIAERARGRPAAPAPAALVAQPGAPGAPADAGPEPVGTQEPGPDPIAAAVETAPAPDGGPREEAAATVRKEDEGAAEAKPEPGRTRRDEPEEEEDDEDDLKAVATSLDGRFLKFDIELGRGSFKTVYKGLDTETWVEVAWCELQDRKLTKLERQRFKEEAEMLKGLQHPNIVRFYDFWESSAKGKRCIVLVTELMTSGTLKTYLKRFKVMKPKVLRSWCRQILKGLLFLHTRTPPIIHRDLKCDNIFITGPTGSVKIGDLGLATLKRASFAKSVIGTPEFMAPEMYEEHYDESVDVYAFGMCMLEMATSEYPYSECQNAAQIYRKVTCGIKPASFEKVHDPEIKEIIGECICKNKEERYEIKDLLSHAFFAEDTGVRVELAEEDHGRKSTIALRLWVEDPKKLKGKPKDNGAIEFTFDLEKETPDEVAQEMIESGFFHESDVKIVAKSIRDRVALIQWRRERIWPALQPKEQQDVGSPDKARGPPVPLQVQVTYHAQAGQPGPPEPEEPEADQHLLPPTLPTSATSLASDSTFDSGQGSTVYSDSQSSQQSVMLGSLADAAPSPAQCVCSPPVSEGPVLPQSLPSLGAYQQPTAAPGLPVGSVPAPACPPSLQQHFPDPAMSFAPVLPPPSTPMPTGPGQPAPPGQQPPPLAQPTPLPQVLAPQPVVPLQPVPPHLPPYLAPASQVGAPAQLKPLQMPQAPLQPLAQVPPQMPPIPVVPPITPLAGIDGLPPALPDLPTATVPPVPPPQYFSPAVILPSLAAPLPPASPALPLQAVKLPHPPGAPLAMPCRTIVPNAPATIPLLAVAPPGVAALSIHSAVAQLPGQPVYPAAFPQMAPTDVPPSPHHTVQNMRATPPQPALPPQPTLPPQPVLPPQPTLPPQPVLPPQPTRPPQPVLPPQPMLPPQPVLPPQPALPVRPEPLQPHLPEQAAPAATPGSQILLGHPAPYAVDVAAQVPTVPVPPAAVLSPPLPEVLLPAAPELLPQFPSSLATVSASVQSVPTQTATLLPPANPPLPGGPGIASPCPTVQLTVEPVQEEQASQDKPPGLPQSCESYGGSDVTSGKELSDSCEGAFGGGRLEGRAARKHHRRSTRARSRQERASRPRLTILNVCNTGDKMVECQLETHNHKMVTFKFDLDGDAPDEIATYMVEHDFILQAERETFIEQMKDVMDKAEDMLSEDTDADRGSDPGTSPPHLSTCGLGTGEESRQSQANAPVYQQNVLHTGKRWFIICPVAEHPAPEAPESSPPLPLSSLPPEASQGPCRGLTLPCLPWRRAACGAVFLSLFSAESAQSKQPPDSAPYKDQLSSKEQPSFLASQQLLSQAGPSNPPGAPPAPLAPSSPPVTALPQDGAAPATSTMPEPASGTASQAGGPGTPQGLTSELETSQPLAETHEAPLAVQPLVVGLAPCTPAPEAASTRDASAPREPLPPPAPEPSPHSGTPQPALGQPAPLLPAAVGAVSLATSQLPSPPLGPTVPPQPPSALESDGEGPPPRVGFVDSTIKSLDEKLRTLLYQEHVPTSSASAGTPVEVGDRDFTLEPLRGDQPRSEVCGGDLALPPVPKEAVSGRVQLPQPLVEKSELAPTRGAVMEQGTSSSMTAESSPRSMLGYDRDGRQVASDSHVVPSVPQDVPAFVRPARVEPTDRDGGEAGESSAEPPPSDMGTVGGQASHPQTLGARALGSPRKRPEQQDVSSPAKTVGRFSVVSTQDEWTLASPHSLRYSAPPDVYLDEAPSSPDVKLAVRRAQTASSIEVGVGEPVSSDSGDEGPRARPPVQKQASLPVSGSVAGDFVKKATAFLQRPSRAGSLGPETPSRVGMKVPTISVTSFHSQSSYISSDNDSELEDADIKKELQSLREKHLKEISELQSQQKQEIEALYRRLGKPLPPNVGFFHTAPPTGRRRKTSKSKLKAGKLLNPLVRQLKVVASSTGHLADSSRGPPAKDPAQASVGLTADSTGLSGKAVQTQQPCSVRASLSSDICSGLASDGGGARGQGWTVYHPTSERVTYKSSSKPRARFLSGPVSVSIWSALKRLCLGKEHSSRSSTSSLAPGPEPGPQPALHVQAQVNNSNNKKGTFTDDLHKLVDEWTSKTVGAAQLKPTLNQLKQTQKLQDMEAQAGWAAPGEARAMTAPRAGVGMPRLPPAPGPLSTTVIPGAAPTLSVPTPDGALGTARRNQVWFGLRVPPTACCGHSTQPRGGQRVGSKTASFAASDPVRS
- test conditions: at 10 µM
- Description: Millipore: Percentage of residual kinase activity of WNK2 at 10uM relative to control. Control inhibitor: Phosphoric acid* at 0.3uM. Buffer: 8 mM MOPS pH 7.0, 0.2 mM EDTA
The compounds listed here are annotated with their residual activity.
Enter your answer as a number in %; do not include the unit.

Qu. Request - read-out residual activity | tested on Serine/threonine-protein kinase WNK2 (Homo sapiens) (UniProt Q9Y3S1) | compound `Cc1nc(-c2ccccc2)c(-c2ccncc2)o1`
Ans. 101

Qu. Please state recorded residual activity (tested on Serine/threonine-protein kinase WNK2 (Homo sapiens) (UniProt Q9Y3S1)) of `Cn1cc(/C=C2\C(=O)Nc3ccc(S(N)(=O)=O)cc32)c2ccccc21`
Ans. 85

Qu. Provide value of residual activity for this record tested with Serine/threonine-protein kinase WNK2 (Homo sapiens) (UniProt Q9Y3S1): `O=C(O)c1ccc2c3c1cccc3c(=O)n1c3ccccc3nc21`
Ans. 106

Qu. Item: `Nc1cccc(-c2cc3c(Oc4cccc(O)c4)ncnc3[nH]2)c1` Test system: Serine/threonine-protein kinase WNK2 (Homo sapiens) (UniProt Q9Y3S1) Read-out: residual activity Value: ?
Ans. 40

Qu. Please provide the recorded residual activity for `O=Nc1c(-c2c(O)[nH]c3ccccc23)[nH]c2ccccc12` , tested on Serine/threonine-protein kinase WNK2 (Homo sapiens) (UniProt Q9Y3S1).
Ans. 55

Qu. Hello, I am looking for reported residual activity with Serine/threonine-protein kinase WNK2 (Homo sapiens) (UniProt Q9Y3S1) for `CO[C@H]1C[C@@H]2CC[C@@H](C)[C@@](O)(O2)C(=O)C(=O)N2CCCC[C@H]2C(=O)O[C@H]([C@H](C)C[C@@H]2CC[C@@H](O)[C@H](OC)C2)CC(=O)[C@H](C)/C=C(\C)[C@@H](O)[C@@H](OC)C(=O)[C@H](C)C[C@H](C)/C=C/C=C/C=C/1C` . Could you help?
Ans. 94

Qu. Which residual activity is reported with Serine/threonine-protein kinase WNK2 (Homo sapiens) (UniProt Q9Y3S1) for this entry: `COc1cc2ncnc(Nc3ccc(Oc4ccccc4)cc3)c2cc1OC` ?
Ans. 41

Qu. Enter reported residual activity observed with Serine/threonine-protein kinase WNK2 (Homo sapiens) (UniProt Q9Y3S1) for `Ic1cccc(CSc2nnc(-c3ccncc3)o2)c1`
Ans. 83

Qu. Checklist item: residual activity tested on Serine/threonine-protein kinase WNK2 (Homo sapiens) (UniProt Q9Y3S1), entry `O=C1NC(=O)c2cc(Nc3ccc(F)cc3)c(Nc3ccc(F)cc3)cc21` , value?
Ans. 34

Qu. Report residual activity for `c1ccc(-c2n[nH]cc2-c2ccnc3ccccc23)nc1` tested on Serine/threonine-protein kinase WNK2 (Homo sapiens) (UniProt Q9Y3S1).
Ans. 88

Qu. Short answer please: residual activity, Serine/threonine-protein kinase WNK2 (Homo sapiens) (UniProt Q9Y3S1), entry `Cn1cnc2cc3c(Nc4cccc(Br)c4)ncnc3cc21`
Ans. 85
